- system under test: Sodium-dependent phosphate transport protein 2B (Homo sapiens, UniProt O95436)
- Sequence (O95436 whole entry): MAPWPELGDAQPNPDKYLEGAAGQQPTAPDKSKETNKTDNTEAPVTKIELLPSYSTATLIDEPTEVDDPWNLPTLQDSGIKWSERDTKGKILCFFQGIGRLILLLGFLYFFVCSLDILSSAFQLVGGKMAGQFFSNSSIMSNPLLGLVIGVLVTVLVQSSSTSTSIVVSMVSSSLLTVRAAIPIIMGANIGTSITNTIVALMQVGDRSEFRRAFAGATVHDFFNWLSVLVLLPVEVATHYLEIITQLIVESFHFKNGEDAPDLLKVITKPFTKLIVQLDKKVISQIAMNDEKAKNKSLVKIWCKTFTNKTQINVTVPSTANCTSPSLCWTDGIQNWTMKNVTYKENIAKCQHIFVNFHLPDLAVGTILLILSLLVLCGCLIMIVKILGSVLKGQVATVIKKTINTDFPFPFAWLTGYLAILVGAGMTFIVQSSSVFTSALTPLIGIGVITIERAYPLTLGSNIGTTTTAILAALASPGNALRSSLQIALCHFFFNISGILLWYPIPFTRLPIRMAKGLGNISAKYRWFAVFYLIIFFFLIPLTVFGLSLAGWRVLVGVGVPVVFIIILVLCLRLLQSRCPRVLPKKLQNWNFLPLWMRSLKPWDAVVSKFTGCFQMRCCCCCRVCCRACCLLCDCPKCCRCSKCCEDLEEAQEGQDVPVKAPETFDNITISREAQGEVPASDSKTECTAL
- method summary: Inhibition of human NaPi2b expressed in CHO-K1 cells assessed as reduction in [33P] uptake preincubated with compound for 30 mins followed by [33P]O4 addition and measured after 30 mins by TopCount liquid scintillation counting method
- Assay type: cell-based
Please assign Condition not met whenever IC50 is at or above 0.3 µM, and Condition met whenever it is below.

As a guide, the following entries are already answered.
CCCC(CCC)N(CCN(C)C(=O)CCC(=O)O)Cc1cccc(C(=O)Nc2[nH]c3ccccc3c2C(=O)Nc2ccc(CCCc3ccc(C(=O)O)cc3)cc2)c1 : Condition met
CN(C(=O)CCC(=O)O)C1CCN(Cc2cccc(C(=O)Nc3[nH]c4ccccc4c3C(=O)Nc3ccc(CCCc4ccc(C(=O)O)cc4)cc3)c2)C1 (centres undefined) : Condition not met

Q) Strictly below 0.3 µM: is that where IC50 of "CCN([C@H]1CC[C@H](C(=O)O)CC1)S(=O)(=O)c1cccc(C(=O)Nc2[nH]c3ccccc3c2C(=O)Nc2ccc(CCCc3ccc(C(=O)O)cc3)cc2)c1" sits?
A) Condition met

Q) Strictly below 0.3 µM: is that where IC50 of "CCC(CC)N(CCN(C)C(=O)CCC(=O)O)Cc1cccc(C(=O)Nc2[nH]c3ccccc3c2C(=O)Nc2ccccc2)c1" sits?
A) Condition not met

Q) Strictly below 0.3 µM: is that where IC50 of "CC(C)N(CCN(C)C(=O)CCC(=O)O)Cc1cccc(C(=O)Nc2[nH]c3ccccc3c2C(=O)Nc2ccc(CCCc3ccc(C(=O)O)cc3)cc2)c1" sits?
A) Condition not met

Q) Strictly below 0.3 µM: is that where IC50 of CN(Cc1cccc(C(=O)Nc2[nH]c3ccccc3c2C(=O)Nc2ccc(CCCc3ccc(C(=O)O)cc3)cc2)c1)C1CCN(C(=O)CCC(=O)O)C1 (centres undefined) sits?
A) Condition not met

----------
- method summary: Drug excretion in Sprague-Dawley rat feces assessed as cumulative amount of unchanged drug excreted at 10 mg/kg, po administered as single dose and measured within 24 hrs by LC-MS analysis
- Assay type: ADME, organism-based
- measurement context: faeces, read-out: Ae
measured property: dose excreted at 24 h (%)
Report the figure in % without appending any unit label.

CCC(CC)N(CCN(C)C(=O)CCC(=O)O)Cc1cccc(C(=O)Nc2[nH]c3ccccc3c2C(=O)Nc2ccc(CCCc3ccc(C(=O)O)cc3)cc2)c1 : 68.1

Next up:
Q) Reported dose excreted at 24 h, molecule "CCC(CC)N(CCN(C)C(=O)CCC(=O)NCCOCCOCCOCCO)Cc1cccc(C(=O)Nc2[nH]c3ccccc3c2C(=O)Nc2ccc(CCCc3ccc(C(=O)O)cc3)cc2)c1" : ____
A) 58.8

----------
- method summary: Solubility of the compound in fed state simulated intestinal fluid at pH 5.0 incubated for 24 hrs by HPLC analysis
- Type: physicochemical
measured property: solubility at 24 h (µg/mL)
Report the figure in µg/mL without appending any unit label.

Q) Reported solubility at 24 h, compound "CCC(CC)N(CCN(C)C(=O)CCC(=O)O)Cc1cccc(C(=O)Nc2[nH]c3ccccc3c2C(=O)Nc2ccc(CCCc3ccc(C(=O)O)cc3)cc2)c1" : ____
A) 264

----------
- system under test: Sodium-dependent phosphate transport protein 2B (Homo sapiens, UniProt O95436)
- method summary: Inhibition of NaPi2b (unknown origin)
measured property: IC50 (nM)
Report the figure in nM without appending any unit label.

Q) Reported IC50, compound "CCN(CC)c1ccc(NC(=O)c2cccc(CSCCOCCOCCOCCOCCOCCOCCOCCOCCC(=O)O)c2)c(-c2cc(C(=O)NCc3cccc(C(F)(F)F)c3)ccn2)c1" : ____
A) 1000

----------
- method summary: AUC (0 to t) in Sprague-Dawley rat at 1 mg/kg, iv administered as single dose by LC-MS analysis
- Assay type: ADME, organism-based
- Design: dose 1 mg/kg, route iv
- measurement context: in vivo
measured property: AUC(0-t) (ng·h/mL)
Report the figure in ng·h/mL without appending any unit label.

Q) Reported AUC(0-t), compound "CCC(CC)N(CCN(C)C(=O)CCC(=O)O)Cc1cccc(C(=O)Nc2[nH]c3ccccc3c2C(=O)Nc2ccc(CCCc3ccc(C(=O)O)cc3)cc2)c1" : ____
A) 834

----------
- method summary: AUC (0 to t) in Sprague-Dawley rat at 1.17 mg/kg, iv administered as single dose by LC-MS analysis
- Format: ADME, organism-based
- Parameters: dose 1.17 mg/kg, route iv
- measurement context: in vivo
measured property: AUC(0-t) (ng·h/mL)
Report the figure in ng·h/mL without appending any unit label.

Q) Reported AUC(0-t), compound "CCC(CC)N(CCN(C)C(=O)CCC(=O)NCCOCCOCCOCCO)Cc1cccc(C(=O)Nc2[nH]c3ccccc3c2C(=O)Nc2ccc(CCCc3ccc(C(=O)O)cc3)cc2)c1" : ____
A) 170

----------
- system under test: Sodium-dependent phosphate transport protein 2B (Homo sapiens, UniProt O95436)
- method summary: Inhibition of human NaPi2b expressed in CHO-K1 cells assessed as reduction in [33P] uptake preincubated with compound for 30 mins followed by [33P]O4 addition and measured after 30 mins by TopCount liquid scintillation counting method
- Type: cell-based
Please assign F whenever IC50 is at or above 300 nM, and T whenever it is below.

As a guide, the following entries are already answered.
CCC(CC)N(CCN(C)C(=O)CN1C(=O)NC2NC(=O)NC21)Cc1cccc(C(=O)Nc2[nH]c3ccccc3c2C(=O)Nc2ccc(CCCc3ccc(C(=O)O)cc3)cc2)c1 (stereo not drawn) : F
CCC(CC)N(CCN(C)C(=O)CCC(=O)NCCOCCOCCOCCC(=O)O)Cc1cccc(C(=O)Nc2[nH]c3ccccc3c2C(=O)Nc2ccc(CCCc3ccc(C(=O)O)cc3)cc2)c1 : F
CCC(CC)N(CCN(C)C(=O)CNS(=O)(=O)c1c[nH]c(C(N)=O)c1)Cc1cccc(C(=O)Nc2[nH]c3ccccc3c2C(=O)Nc2ccc(CCCc3ccc(C(=O)O)cc3)cc2)c1 : F

Q) Strictly below 300 nM: is that where IC50 of "CCC(CC)N(CCN(C)C(=O)CCC(=O)O)Cc1cccc(C(=O)Nc2[nH]c3ccccc3c2C(=O)Nc2ccc(Cc3ccc(C(=O)O)cc3)cc2)c1" sits?
A) F

Q) Strictly below 300 nM: is that where IC50 of "CCC(CC)N(CCN(C)C(=O)CCC(=O)NCCOCCOCCOCCO)Cc1cccc(C(=O)Nc2[nH]c3ccccc3c2C(=O)Nc2ccc(CCCc3ccc(C(=O)O)cc3)cc2)c1" sits?
A) T

Q) Strictly below 300 nM: is that where IC50 of "CCC(CC)N(CCN(C)C(=O)NCC(=O)O)Cc1cccc(C(=O)Nc2[nH]c3ccccc3c2C(=O)Nc2ccc(CCCc3ccc(C(=O)O)cc3)cc2)c1" sits?
A) F

Q) Strictly below 300 nM: is that where IC50 of "CCC(CC)N(CCN(C)C(=O)CCC(=O)O)Cc1cccc(C(=O)Nc2[nH]c3ccccc3c2C(=O)Nc2ccc(CCCc3ccc(C(=O)O)cc3)cc2)c1" sits?
A) T

Q) Strictly below 300 nM: is that where IC50 of "CCC(CC)N(CCN(C)S(=O)(=O)NC(=O)OCC(=O)O)Cc1cccc(C(=O)Nc2[nH]c3ccccc3c2C(=O)Nc2ccc(CCCc3ccc(C(=O)O)cc3)cc2)c1" sits?
A) T

From: ChEMBL document CHEMBL5120876
